target: Voltage-gated inwardly rectifying potassium channel KCNH2 (Homo sapiens, UniProt Q12809)
Sequence (Q12809 whole entry): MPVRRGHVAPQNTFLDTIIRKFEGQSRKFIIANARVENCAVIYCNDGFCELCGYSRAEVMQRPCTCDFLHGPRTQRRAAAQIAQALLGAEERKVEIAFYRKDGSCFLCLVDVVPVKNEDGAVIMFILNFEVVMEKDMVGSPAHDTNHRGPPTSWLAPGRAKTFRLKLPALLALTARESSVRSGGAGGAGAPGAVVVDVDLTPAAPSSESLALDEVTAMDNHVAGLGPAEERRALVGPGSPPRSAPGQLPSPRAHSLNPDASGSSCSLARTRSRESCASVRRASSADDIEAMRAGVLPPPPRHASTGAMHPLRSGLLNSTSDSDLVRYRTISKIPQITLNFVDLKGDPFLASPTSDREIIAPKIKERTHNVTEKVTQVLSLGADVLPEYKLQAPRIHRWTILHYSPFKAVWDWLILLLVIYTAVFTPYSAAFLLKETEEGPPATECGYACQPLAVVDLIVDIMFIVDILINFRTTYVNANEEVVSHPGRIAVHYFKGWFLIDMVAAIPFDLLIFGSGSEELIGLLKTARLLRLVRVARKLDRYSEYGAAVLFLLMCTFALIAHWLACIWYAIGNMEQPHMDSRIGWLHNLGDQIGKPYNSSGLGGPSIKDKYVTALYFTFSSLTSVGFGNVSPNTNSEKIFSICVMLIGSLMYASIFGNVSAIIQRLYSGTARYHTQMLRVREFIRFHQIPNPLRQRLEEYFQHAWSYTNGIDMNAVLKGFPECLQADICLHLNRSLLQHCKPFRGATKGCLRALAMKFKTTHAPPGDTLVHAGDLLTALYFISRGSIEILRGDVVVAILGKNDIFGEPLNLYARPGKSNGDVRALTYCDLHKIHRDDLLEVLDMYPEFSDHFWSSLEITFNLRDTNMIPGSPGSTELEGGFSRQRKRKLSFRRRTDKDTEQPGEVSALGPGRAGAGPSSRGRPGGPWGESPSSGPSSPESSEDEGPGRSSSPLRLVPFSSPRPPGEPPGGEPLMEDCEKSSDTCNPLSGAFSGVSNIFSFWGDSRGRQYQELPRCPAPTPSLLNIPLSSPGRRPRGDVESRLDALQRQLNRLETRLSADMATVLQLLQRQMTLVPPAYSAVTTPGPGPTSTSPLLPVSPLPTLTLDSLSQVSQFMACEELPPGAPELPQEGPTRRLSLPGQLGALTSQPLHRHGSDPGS
Label Satisfied when IC50 is strictly below 8 µM; otherwise label Not satisfied.

O=C(Nc1ccc(Cl)c(Cl)c1)N1CCN(C(=O)[C@H]2CN(C3CC3)CCN2)CC1 : Not satisfied

Kindly consider the entry below.
Prompt: Below 8 µM on IC50? Entry CCN1CCCC(CN2CCN(C(=O)Nc3ccc(Cl)c(Cl)c3)CC2)C1 (racemic)
Completion: Satisfied

----------
Let's go through some recorded IC50 values for UniProtKB Q12809 together.

// solved cases for IC50 follow
O=C(Nc1ccc(Cl)cc1)N1CCN(C[C@@H]2CCCN(C3CC3)C2)CC1 : 14 µM
CCN1CCOC(C(=O)N2CCN(C(=O)Nc3ccc(Cl)c(Cl)c3)CC2)C1 (racemic) : 5 µM
O=C(Nc1ccc(Cl)c(C(F)(F)F)c1)N1CCN(C[C@@H]2CCCN(C3CC3)C2)CC1 : 6.3 µM
O=C(Nc1cccc(C(F)(F)F)c1)N1CCN(C[C@@H]2CCCN(C3CC3)C2)CC1 : 13 µM
CCN1CCC[C@@H](CN2CCN(C(=O)Nc3ccc(Cl)c(Cl)c3)CC2)C1 : 2.1 µM

Field: next compound
Lab note: measured IC50 of Cc1ccc(NC(=O)N2CCN(C[C@@H]3CCCN(C4CC4)C3)CC2)cc1Cl was 7.1 µM

----------
molecular target: UniProt:Q12809
Overview of reported IC50 across a group of molecules:
Dear colleague, please return just the value in µM, with no unit written.

// solved cases for IC50 follow
CCN1CCO[C@@H](CN2CCN(C(=O)Nc3ccc(Cl)c(Cl)c3)CC2)C1 : 7.9
CC(C)N1CCN[C@@H](C(=O)N2CCN(C(=O)Nc3ccc(Cl)c(Cl)c3)CC2)C1 : 17
CN1CCN(C)C(C(=O)N2CCN(C(=O)Nc3ccc(Cl)c(Cl)c3)CC2)C1 (racemic) : 13
CN1CCN[C@@H](C(=O)N2CCN(C(=O)Nc3ccc(Cl)c(Cl)c3)CC2)C1 : 20
O=C(Nc1ccc(Cl)c(Cl)c1)N1CCN(C[C@@H]2CCCN(CCCc3ccccc3)C2)CC1 : 0.4
CN1CCCC(CN2CCN(C(=O)Nc3ccc(Cl)c(Cl)c3)CC2)C1 (centres undefined) : 1.6
O=C(Nc1ccc(Br)cc1)N1CCN(C[C@@H]2CCCN(C3CC3)C2)CC1 : 7.1
CC(C)N1CCO[C@@H](CN2CCN(C(=O)Nc3ccc(Cl)c(Cl)c3)CC2)C1 : 6.3

Field: next molecule
Lab note: measured IC50 of CC(C)N1CCC[C@@H](CN2CCN(C(=O)Nc3ccc(Cl)c(Cl)c3)CC2)C1 was 1.3

Data credit: ChEMBL document CHEMBL2034889
